test system: HSkMC (human skeletal muscle cells); assay: cytotoxicity call (relative viability < 0.9); details: 10 µM
Among all 39,000 compounds or so, about 1,500 (3.8%) were called active. Shown is part of a subset that was picked to be rich in actives.
Pick from active, inactive when you respond.

Smiles str	Discrete label
CN(C)CCCNC(=O)C[C@@H]1CC[C@H](NS(=O)(=O)c2ccccc2)[C@@H](CO)O1	inactive
Cc1noc(C)c1NC(=O)N(C)C[C@@H]1OCCCC[C@H](C)Oc2ccc(NS(=O)(=O)c3ccccc3)cc2C(=O)N([C@@H](C)CO)C[C@@H]1C	inactive
C/C(=C\CC[C@@H](C)[C@H]1C[C@@H](O)[C@@]2(C)[C@H]3CC[C@H]4C(C)(C)[C@@H](O[C@@H]5O[C@@H](CO[C@H]6OC[C@@H](O)[C@@H](O)[C@@H]6O)[C@@H](O)[C@@H](O)[C@@H]5O)CC[C@@]45C[C@@]35C[C@@H](O)[C@]12C)C(=O)O[C@H]1O[C@@H](CO)[C@@H](O)[C@@H](O)[C@@H]1O	inactive
Nc1ncnc2c1c(-c1ccc(Cl)cc1)nn2-c1cccc(-c2cnnn2Cc2cccc(-c3ccccc3)c2)c1	active
C=CCOC(=O)[C@@H]1[C@@H]2C=C[C@@]3(O2)[C@@H]1C(=O)N(CCCCCCO)[C@H]3C(=O)N(CC=C)Cc1ccccc1	active
C[C@H]1CN([C@@H](C)CO)C(=O)Cc2cc(N(C)C)ccc2O[C@@H]1CN(C)S(=O)(=O)c1ccc(F)cc1	inactive
CN1CCN(c2nc3c(c(=O)[nH]c(=O)n3C)n2CC(=O)c2ccc(Cl)cc2)CC1	inactive
C=CCN(Cc1ccccc1)C(=O)[C@@H]1N(CCOCCO)C(=O)[C@@H]2[C@H](C(=O)O)[C@@H]3C=C[C@@]21O3	inactive

Returns: the outcome recorded for CCCCCCc1ccc(O)cc1O.Nc1c2ccccc2nc2ccccc12 in this assay.
inactive

Returns: the outcome recorded for COc1ccc(CN(C)C[C@@H]2OCCCC[C@H](C)Oc3ccc(NC(=O)NC4CCCCC4)cc3C(=O)N([C@@H](C)CO)C[C@H]2C)cc1 in this assay.
inactive

Returns: the outcome recorded for CO[C@@H](CN(C)S(=O)(=O)c1cccc(Cl)c1)[C@@H](C)CN([C@@H](C)CO)S(=O)(=O)c1ccc(Cl)cc1 in this assay.
inactive

Returns: the outcome recorded for COC(=O)CCc1ccc(OC)cc1O in this assay.
inactive

Returns: the outcome recorded for O=C(C[C@@H]1CC[C@@H]2[C@H](COC[C@H](O)CN2S(=O)(=O)c2ccccc2)O1)NCc1ccncn1 in this assay.
inactive

Returns: the outcome recorded for COc1ccc(S(=O)(=O)Nc2ccc3c(c2)CC(=O)N([C@@H](C)CO)C[C@@H](C)[C@H](CN(C)S(C)(=O)=O)O3)cc1 in this assay.
inactive

Returns: the outcome recorded for C[C@H]1CN([C@@H](C)CO)C(=O)c2cc(NC(=O)c3ccncc3)ccc2O[C@H]1CN(C)Cc1ccncc1 in this assay.
inactive

Returns: the outcome recorded for C[C@H]1CN([C@@H](C)CO)C(=O)c2cccc(NC(=O)Nc3ccc4c(c3)OCO4)c2O[C@H]1CN(C)S(=O)(=O)c1cn(C)cn1 in this assay.
inactive

Returns: the outcome recorded for O=C(C[C@@H]1C=C[C@H](NC(=O)CN2CCOCC2)[C@@H](CO)O1)NC1CCCCC1 in this assay.
inactive

Returns: the outcome recorded for COc1ccc(S(=O)(=O)Nc2ccc3c(c2)CC(=O)N([C@@H](C)CO)C[C@@H](C)[C@@H](CN(C)C(=O)Nc2c(C)noc2C)O3)cc1 in this assay.
inactive

Returns: the outcome recorded for COC(=O)c1c2oc(c1C(=O)OC)C(=O)N(C)Cc1cn(nn1)C[C@H](Cc1ccccc1)NC(=O)N[C@H](CO)CC2 in this assay.
inactive

Returns: the outcome recorded for C=CCOC(=O)[C@@H]1[C@H]2C(=O)O[C@H](c3ccccc3)[C@H](c3ccccc3)N2[C@H](c2ccccc2OCCO)[C@@]12C(=O)Nc1ccc(I)cc12 in this assay.
inactive

Returns: the outcome recorded for C[C@H](CO)N1C[C@H](C)[C@H](CN(C)S(=O)(=O)c2ccc(Cl)cc2)Oc2ccc(NC(=O)CCCN(C)C)cc2CC1=O in this assay.
inactive

Returns: the outcome recorded for C[C@H](CO)N1C[C@H](C)[C@@H](CN(C)C(=O)Nc2ccc(F)cc2)Oc2c(NS(=O)(=O)c3cn(C)cn3)cccc2C1=O in this assay.
inactive

Returns: the outcome recorded for C[C@@H]1CN([C@@H](C)CO)C(=O)c2cc(NS(C)(=O)=O)ccc2O[C@@H]1CN(C)S(=O)(=O)c1ccc(Cl)cc1 in this assay.
inactive

Returns: the outcome recorded for Cc1noc(C)c1S(=O)(=O)Nc1ccc2c(c1)C(=O)N([C@@H](C)CO)C[C@H](C)[C@H](CN(C)Cc1ccccc1)O2 in this assay.
inactive

Returns: the outcome recorded for C[C@H](CO)N1C[C@H](C)[C@H](CN(C)C(=O)Nc2ccc(F)cc2)OCCCC[C@H](C)Oc2ccc(NC(=O)C3CCCCCC3)cc2C1=O in this assay.
inactive

Returns: the outcome recorded for CCc1c(C)c2cc3c(-c4ccccc4)coc3cc2oc1=O in this assay.
inactive

Returns: the outcome recorded for CC(C)Oc1cccc(CC(=O)N2CCC[C@](CC[N+]34CCC(c5ccccc5)(CC3)CC4)(c3ccc(Cl)c(Cl)c3)C2)c1 in this assay.
inactive

Returns: the outcome recorded for C[C@@H]1CN([C@@H](C)CO)C(=O)c2cc(NC(=O)Nc3ccc(F)cc3)ccc2O[C@@H](C)CCCCO[C@@H]1CN(C)Cc1ccc2c(c1)OCO2 in this assay.
inactive
